- testSummary: self-splicing fitness, log relative to wild type (ln ratio); higher = more splicing; Tetrahymena group I intron in knt gene, E. coli kanamycin selection, DiMSum; sequences stand for … in CUCUCU…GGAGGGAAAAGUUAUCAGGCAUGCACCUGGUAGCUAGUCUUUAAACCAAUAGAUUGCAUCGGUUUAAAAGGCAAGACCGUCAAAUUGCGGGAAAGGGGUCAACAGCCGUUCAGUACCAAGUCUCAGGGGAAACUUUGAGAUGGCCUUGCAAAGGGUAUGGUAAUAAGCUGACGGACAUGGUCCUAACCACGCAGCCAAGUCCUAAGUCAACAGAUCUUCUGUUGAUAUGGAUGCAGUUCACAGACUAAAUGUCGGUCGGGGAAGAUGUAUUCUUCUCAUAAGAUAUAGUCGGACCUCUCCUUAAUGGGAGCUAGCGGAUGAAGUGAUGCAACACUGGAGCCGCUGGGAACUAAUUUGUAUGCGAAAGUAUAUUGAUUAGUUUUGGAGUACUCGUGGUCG;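 further: selection with 25 µg/mL kanamycin versus none on LB agar overnight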
- conditionParameters: 37 °C
measure: self-splicing fitness (ln)

sequencecontent=GACCAGCAAUAUUACGACUA measure="self-splicing fitness (ln)" value=-0.0882
sequencecontent=UACAAGCAAUAUUACGUAUG measure="self-splicing fitness (ln)" value=-2.11
sequencecontent=ACUUAGCAAUAUUACGCUGC measure="self-splicing fitness (ln)" value=-2.36
sequencecontent=GUUCAGCAAUAUUACGUUAA measure="self-splicing fitness (ln)" value=-0.264
sequencecontent=ACGAAGCAAUAUUACGCGUC measure="self-splicing fitness (ln)" value=-1.91
sequencecontent=GGGUAGCAAUAUUACGUUCG measure="self-splicing fitness (ln)" value=0.339
sequencecontent=GGUAAGCAAUAUUACGAACU measure="self-splicing fitness (ln)" value=-1.67
sequencecontent=AGCUAGCAAUAUUACGCGCG measure="self-splicing fitness (ln)" value=-0.121
sequencecontent=CCCAAGCAAUAUUACGGUAA measure="self-splicing fitness (ln)" value=-1.4
sequencecontent=UCAGAGCAAUAUUACGUGAU measure="self-splicing fitness (ln)" value=-2.94
sequencecontent=CACUAGCAAUAUUACGAUCA measure="self-splicing fitness (ln)" value=-1.22
sequencecontent=AUACAGCAAUAUUACGUGGG measure="self-splicing fitness (ln)" value=-1.53
sequencecontent=UUCAAGCAAUAUUACGCUAA measure="self-splicing fitness (ln)" value=-0.551
sequencecontent=CUGUAGCAAUAUUACGAGAC measure="self-splicing fitness (ln)" value=-0.769
sequencecontent=UGUGAGCAAUAUUACGGGCC measure="self-splicing fitness (ln)" value=-3.45
sequencecontent=AGACAGCAAUAUUACGCUCU measure="self-splicing fitness (ln)" value=-0.598
sequencecontent=CUAUAGCAAUAUUACGACAU measure="self-splicing fitness (ln)" value=-3.08
sequencecontent=UUCAAGCAAUAUUACGGCCA measure="self-splicing fitness (ln)" value=-0.977
sequencecontent=UCCUAGCAAUAUUACGUGCC measure="self-splicing fitness (ln)" value=-2.02
sequencecontent=GAUCAGCAAUAUUACGGCGU measure="self-splicing fitness (ln)" value=0.2
sequencecontent=CACCAGCAAUAUUACGAGGA measure="self-splicing fitness (ln)" value=-1.91
sequencecontent=CAGGAGCAAUAUUACGAAGG measure="self-splicing fitness (ln)" value=-0.955
sequencecontent=CACAAGCAAUAUUACGACAU measure="self-splicing fitness (ln)" value=-1.99
sequencecontent=AGUAAGCAAUAUUACGGAAA measure="self-splicing fitness (ln)" value=-0.269
sequencecontent=UUGAAGCAAUAUUACGGUGA measure="self-splicing fitness (ln)" value=-0.469
sequencecontent=ACGCAGCAAUAUUACGUCGG measure="self-splicing fitness (ln)" value=-1.14
sequencecontent=AUCAAGCAAUAUUACGUCCG measure="self-splicing fitness (ln)" value=-1.14
sequencecontent=AUUAAGCAAUAUUACGCCCA measure="self-splicing fitness (ln)" value=-0.42
sequencecontent=CACGAGCAAUAUUACGAUCG measure="self-splicing fitness (ln)" value=-0.291
sequencecontent=ACAUAGCAAUAUUACGUGUC measure="self-splicing fitness (ln)" value=-2.72
sequencecontent=AGCCAGCAAUAUUACGUGCC measure="self-splicing fitness (ln)" value=-1.98
sequencecontent=CUUUAGCAAUAUUACGCGCU measure="self-splicing fitness (ln)" value=-0.469
sequencecontent=GAAGAGCAAUAUUACGGAUC measure="self-splicing fitness (ln)" value=-1.1
sequencecontent=CGCAAGCAAUAUUACGACUG measure="self-splicing fitness (ln)" value=-0.47
sequencecontent=UCACAGCAAUAUUACGUCGA measure="self-splicing fitness (ln)" value=-0.734
sequencecontent=GUAAAGCAAUAUUACGCGGU measure="self-splicing fitness (ln)" value=-1.87
sequencecontent=GGGCAGCAAUAUUACGUUAG measure="self-splicing fitness (ln)" value=-0.462
sequencecontent=CCCCAGCAAUAUUACGUCGA measure="self-splicing fitness (ln)" value=-2.27
sequencecontent=ACACAGCAAUAUUACGCUAG measure="self-splicing fitness (ln)" value=-1.06
sequencecontent=UUAGAGCAAUAUUACGACAG measure="self-splicing fitness (ln)" value=-0.391
sequencecontent=UAGGAGCAAUAUUACGCGUA measure="self-splicing fitness (ln)" value=-0.31
sequencecontent=CAGAAGCAAUAUUACGCUUU measure="self-splicing fitness (ln)" value=-3.59
sequencecontent=UUGUAGCAAUAUUACGAGUA measure="self-splicing fitness (ln)" value=-1.22
sequencecontent=GAGCAGCAAUAUUACGCGCC measure="self-splicing fitness (ln)" value=-3.17
sequencecontent=GCAAAGCAAUAUUACGACAU measure="self-splicing fitness (ln)" value=-0.158
sequencecontent=CCGGAGCAAUAUUACGGUUG measure="self-splicing fitness (ln)" value=-1.25
sequencecontent=CAUGAGCAAUAUUACGCAGC measure="self-splicing fitness (ln)" value=-2.32
sequencecontent=CUAUAGCAAUAUUACGAAUG measure="self-splicing fitness (ln)" value=0.0255
sequencecontent=UGACAGCAAUAUUACGGGAU measure="self-splicing fitness (ln)" value=-2.94
sequencecontent=CUUGAGCAAUAUUACGUCAU measure="self-splicing fitness (ln)" value=-2.88
sequencecontent=UUUAAGCAAUAUUACGCAGU measure="self-splicing fitness (ln)" value=-2.36
sequencecontent=CAAUAGCAAUAUUACGAUGC measure="self-splicing fitness (ln)" value=-2.23
sequencecontent=GAUCAGCAAUAUUACGACUA measure="self-splicing fitness (ln)" value=-0.914
sequencecontent=AAACAGCAAUAUUACGGUGA measure="self-splicing fitness (ln)" value=-0.496
sequencecontent=UUGGAGCAAUAUUACGGUUG measure="self-splicing fitness (ln)" value=-3.38
sequencecontent=AAAUAGCAAUAUUACGUCAU measure="self-splicing fitness (ln)" value=-1.51
sequencecontent=AUCAAGCAAUAUUACGGUGG measure="self-splicing fitness (ln)" value=-2.63
sequencecontent=UGCUAGCAAUAUUACGUCUU measure="self-splicing fitness (ln)" value=-0.906
sequencecontent=GUCUAGCAAUAUUACGACCA measure="self-splicing fitness (ln)" value=-2.1
sequencecontent=CCACAGCAAUAUUACGUGAC measure="self-splicing fitness (ln)" value=-2.01
sequencecontent=UACUAGCAAUAUUACGCCUC measure="self-splicing fitness (ln)" value=-1.78
sequencecontent=CCAUAGCAAUAUUACGGUGA measure="self-splicing fitness (ln)" value=-1.74
sequencecontent=AGCGAGCAAUAUUACGUAUC measure="self-splicing fitness (ln)" value=-3.38
sequencecontent=AGUCAGCAAUAUUACGAGCA measure="self-splicing fitness (ln)" value=-0.0144
sequencecontent=UUAUAGCAAUAUUACGUGUC measure="self-splicing fitness (ln)" value=-2.71
sequencecontent=CGAGAGCAAUAUUACGGGGU measure="self-splicing fitness (ln)" value=-2.27
sequencecontent=CAGCAGCAAUAUUACGACUG measure="self-splicing fitness (ln)" value=-2.76
